src = ChEMBL document CHEMBL6182911

experimentSummary: Selectivity index, ratio of CC50 for cytotoxicity against African green monkey Vero E6 cells to EC50 for antiviral activity against replicative EBOV Mayinga variant infected in African green monkey Vero E6 cells
Format: toxicity, cell-based
particulars: read-out: Ratio CC50/EC50
measuredAttribute: selectivity ratio

In [3]: df
Out[3]:
                                querysmiles  measuredattribute  endpointvalue
0                    NC(=O)c1nc(F)c[nH]c1=O  selectivity ratio           14.9
1  O=C(CNCCC1CCN(Cc2ccccc2)CC1)Nc1ccccc1Nc1cc(Cl)ccc1[N+](=O)[O-]  selectivity ratio            2.3
